Assay: Pharmacokinetics after subcutaneous administration, Exendin-4 EIA (part II)
Details: mouse, in vivo, sc
Positions of bridges follow the written chain, without caps; N, C: chain ends. Chains are numbered I, II in the order given. *: point of attachment. X1 = CC(=O)N[C@@H]1[C@@H](O)[C@H](O[C@@H]2O[C@H](CO)[C@@H](O[C@@H]3O[C@H](CO[C@H]4O[C@H](CO)[C@@H](O)[C@H](O)[C@@H]4O[C@@H]4O[C@H](CO)[C@@H](O[C@@H]5O[C@H](CO[C@]6(C(=O)OCc7ccccc7)C[C@H](O)[C@@H](NC(C)=O)[C@H]([C@H](O)[C@H](O)CO)O6)[C@H](O)[C@H](O)[C@H]5O)[C@H](O)[C@H]4NC(C)=O)[C@@H](O)[C@H](O[C@H]4O[C@H](CO)[C@@H](O)[C@H](O)[C@@H]4O[C@@H]4O[C@H](CO)[C@@H](O[C@@H]5O[C@H](CO[C@]6(C(=O)OCc7ccccc7)C[C@H](O)[C@@H](NC(C)=O)[C@H]([C@H](O)[C@H](O)CO)O6)[C@H](O)[C@H](O)[C@H]5O)[C@H](O)[C@H]4NC(C)=O)[C@@H]3O)[C@H](O)[C@H]2NC(C)=O)[C@@H](CO)O[C@H]1NC(=O)C*; Decanoyl = CCCCCCCCCC(=O)*
MEASUREMENT TYPE: half-life (min)
Just the number in min, nothing appended.

*Q* Quick one: half-life for I: H-HGEGTFTSDLSKQMEECAVRLFIEWLKC(X1)GGPSK(Decanoyl)-OH / II: H-HGEGTFTSDLSKQMEECAVRLFIEWLKC(X1)GGPSK(Decanoyl)-OH (disulfide I:17-II:17) [AGM-212-2] ?
*A* 291
